Target: T1, recombinant protein of human BTLA extracellular domain (hBTLA-ECD-FC) (human, UniProt Q7Z6A9 31-157, biotin-labeled in the FACS blocking assays (site not stated))
T1 construct: extracellular domain; also called BTLA-Fc; biotin-labeled hBTLA; not shown: Fc of the self-constructed HX1-FC expression plasmid
T1 sequence (looked up): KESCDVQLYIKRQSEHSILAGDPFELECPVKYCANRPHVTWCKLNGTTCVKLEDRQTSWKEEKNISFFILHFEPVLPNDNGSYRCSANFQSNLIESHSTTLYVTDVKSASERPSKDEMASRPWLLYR
Experiment: FACS, blocking of biotin-labeled hBTLA binding to hHVEM-293F cells
Recorded IC50, one value per entry.
Numbers only here, please. The scale is µg/mL.

In the examples that follow, each entry is paired with its recorded IC50.
{"BINDER": "chimeric antibody ch17 (antibody, human IgG4, V domains shown, T0010 gives only CDR numbers (HCDR 19-21, LCDR 10-12)) VH: EVQLQQSGADLVKPGASVKLSCTASGFNIKDTYVHWVKQRPEQGLEWIGRIDPANGHTKFDPKFQGKATITADTSSNTANLQISSLTSEDTAVYYCVSDYYGSSLLDYWGQGTTLTVSS VL: EVVMTQTPLTLSVTIGQSASISCKSSQSLLDSDGKTYLNWFLQRPGQSPKRLMHLVSKLDSGVPDRFTGSGSGTDFTLKISGVEAEDLGVYYCWQGTYFPYTFGGGTKLETK", "UNIT STRING": "µg/mL", "IC50": 0.0761}
{"BINDER": "chimeric antibody ch27 (antibody, human IgG4, V domains shown, T0010 gives only CDR numbers (HCDR 28-30, LCDR 10-12)) VH: EVHLQQSGTELMKPGASVKLSCTASGLNIRDTYMHWVKQRPEQGLEWIGRIDPANGNTKFDPKFQGKATLTSDTSSNTAYLHFSSLTSEDAAVYYCVSDHYGSSLLDYWGQGTSLTVSS VL: EVVMTQTPLTLSVTIGQSASISCKSSQSLLDSDGKTYLNWFLQRPGQSPKRLMHLVSKLDSGVPDRFTGSGSGTDFTLKISGVEAEDLGVYYCWQGTYFPYTFGGGTKLETK", "UNIT STRING": "µg/mL", "IC50": 0.0695}
{"BINDER": "chimeric antibody ch22 (antibody, human IgG4, V domains shown, T0010 gives only CDR numbers (HCDR 25-27, LCDR 10-12)) VH: EVQLQQSGAELVRPGASVKLSCTVSGFNIKDTYVHWVKQRPEQGLEWIGRIDPANGHTKYDPKLQGTATITADTSSNTAYLQLSSLTSEDTAVYYCATDYYGSSLLDYWGQGTTLTVSS VL: EVVMTQTPLTLSVTIGQSASISCKSSQSLLDSDGKTYLNWFLQRPGQSPKRLMHLVSKLDSGVPDRFTGSGSGTDFTLKISGVEAEDLGVYYCWQGTYFPYTFGGGTKLETK", "UNIT STRING": "µg/mL", "IC50": 0.0757}

[ask] Reported IC50, binder chimeric antibody ch12 (antibody, human IgG4, V domains shown, T0010 gives only CDR numbers (HCDR 13-15, LCDR 10-12)) VH: EVQLQQSGADLVKPGASVKLSCTASGFNFKHTYAHWVKQRPEQGLEWIGRIDPANGNTKYDPKFQGKATMTADTASNAAFLQLSSLTSEDTAVYYCVADHYGSSLLDYWGQGTSLTVSS VL: EVVMTQTPLTLSVTIGQSASISCKSSQSLLDSDGKTYLNWFLQRPGQSPKRLMHLVSKLDSGVPDRFTGSGSGTDFTLKISGVEAEDLGVYYCWQGTYFPYTFGGGTKLETK : ____
[reply] 0.0772
